settings: microsomes
readout.kind: Human Liver Microsome Stability (µL/min/mg)
Numeric only. Scale: µL/min/mg

Request the reported Human Liver Microsome Stability associated with Cc1cc(S(=O)(=O)N(C)CC(=O)Nc2ccc(N3CCOCC3)c(C)c2)c2[nH]ncc2c1
234

Can you share its Human Liver Microsome Stability? I mean this compound: COc1ccc(NC(=O)CN(C)S(=O)(=O)c2cc(C(F)F)cc3cn[nH]c23)cc1C
534

Fill in the blank: the reported Human Liver Microsome Stability of Cc1cc(S(=O)(=O)N(C)CC(=O)Nc2cc(=O)n3c(n2)CCCC3)c2[nH]c(C#N)cc2c1 is ____.
61

Entry Cc1cc(S(=O)(=O)N(C)CC(=O)Nc2ccc3cccnc3c2)c2n[nH]cc2c1 has what Human Liver Microsome Stability?
122

Given CCN(CC(=O)NC1=CC(=O)C(C)C=C1)S(=O)(=O)c1cc(C)cc2cn[nH]c12 (stereo not shown) , state its recorded Human Liver Microsome Stability.
39

// query Human Liver Microsome Stability value for entry Cc1cc(S(=O)(=O)N(C)CC(=O)Nc2ccc3nccn3c2)c2n[nH]cc2c1
36

Quick one: Human Liver Microsome Stability of Cc1cc(S(=O)(=O)N(C)CC(=O)NCC#Cc2ccccc2)c2[nH]ncc2c1 ?
129

Record request: Human Liver Microsome Stability value, item Cc1cc(S(=O)(=O)N(C)CC(=O)Nc2ccc3c(c2)OCCN3C)c2[nH]ncc2c1
78

# input compound: Cc1cc(S(=O)(=O)N2CCC2C(=O)Nc2ccc(OCCN(C)C)c(C)c2)c2[nH]c(C#N)cc2c1 (stereo not shown) ; wanted: its Human Liver Microsome Stability
-7

Which Human Liver Microsome Stability is listed for Cc1cc(S(=O)(=O)N(C)CC(=O)Nc2ccn(C)c(=O)c2)c2n[nH]c(F)c2c1 ?
21

# query: Human Liver Microsome Stability of entry Cc1cc(S(=O)(=O)N2CC[C@H]2C(=O)NCC#N)c2[nH]ncc2c1
4

Quick check: Human Liver Microsome Stability of Cc1cc(S(=O)(=O)N2CC[C@H]2C(=O)NC2CCN(C)CC2)c2[nH]ncc2c1 ?
418

Suppose we examine the compound Cc1cc(S(=O)(=O)N(C)CC(=O)NCc2ccccc2)c2n[nH]cc2c1 ; what Human Liver Microsome Stability value has been reported?
43

Any idea what its Human Liver Microsome Stability is? The compound is Cc1cc(S(=O)(=O)N(C)CC(=O)Nc2ccn(C)c(=O)c2)c2[nH]c(C#N)cc2c1
51

Param item = Cc1cc(NC(=O)CN(C)S(=O)(=O)c2cc(C3CC3)cc3cn[nH]c23)ccc1N1CCOCC1 ; retrieve measured Human Liver Microsome Stability.
203

What Human Liver Microsome Stability value was documented for this compound, CCn1ccc(NC(=O)CN(C)S(=O)(=O)c2cc(C)cc3cn[nH]c23)cc1=O ?
-12

---

settings: microsomes
Please assign n whenever Human Liver Microsome Stability is at or above 40 µL/min/mg, and y whenever it is below.

Determine whether this compound shows Human Liver Microsome Stability lower than 40 µL/min/mg (ties excluded): CN(CC(=O)Nc1ccc2c(c1)OCCN2C1CCOCC1)S(=O)(=O)c1cc(C(F)F)cc2cn[nH]c12
n

Strictly below 40 µL/min/mg in Human Liver Microsome Stability? Cc1cc(S(=O)(=O)N2CC[C@H]2C(=O)Nc2ccc3c(c2)N(C)CCO3)c2[nH]ncc2c1
n

Problem: For the compound O=C(Nc1ccc2c(c1)OCCN2C1CCOCC1)[C@@H]1CCN1S(=O)(=O)c1cc(Cl)cc2c(F)n[nH]c12 , is Human Liver Microsome Stability under 40 µL/min/mg?
n

API: query returns whether the compound falls strictly under 40 µL/min/mg in Human Liver Microsome Stability. Query: CC#CCNC(=O)[C@@H]1CCN1S(=O)(=O)c1cc(C)cc2cn[nH]c12
y

Lab note: Human Liver Microsome Stability threshold 40 µL/min/mg. Does this compound come in strictly under it? Cc1cc(S(=O)(=O)N2CC[C@H]2C(=O)Nc2ccc(OCCN(C)C)c(Cl)c2)c2[nH]ncc2c1 [Example 199]
y

Lab note: Human Liver Microsome Stability threshold 40 µL/min/mg. Does this compound come in strictly under it? Cc1cc(S(=O)(=O)N(C)CC(=O)Nc2ccn(C3COC3)c(=O)c2)c2[nH]ncc2c1
y

Given the entry Cc1cc(S(=O)(=O)N(C)CC(=O)Nc2ccc(N3CCOCC3)c(Cl)c2)c2[nH]c(C#N)cc2c1 , would its reported Human Liver Microsome Stability be below 40 µL/min/mg?
n

Check if Human Liver Microsome Stability falls below 40 µL/min/mg for Cc1cc(S(=O)(=O)N(C)CC(=O)Nc2ccn3cccc3c2)c2[nH]ncc2c1 .
y

Regarding Cn1ccc(NC(=O)[C@@H]2CCN2S(=O)(=O)c2cc(Cl)cc3cn[nH]c23)cc1=O , kindly confirm whether its Human Liver Microsome Stability is beneath 40 µL/min/mg.
y

Report whether reported Human Liver Microsome Stability is lower than 40 µL/min/mg (strictly) for COc1ccc(CNC(=O)CN(C)S(=O)(=O)c2cc(C)cc3c[nH]nc23)cc1
n

Confirm or reject: Human Liver Microsome Stability of Cc1cc(S(=O)(=O)N2CC[C@H]2C(=O)Nc2ccc3c(c2)OCCN3C2COC2)c2n[nH]cc2c1 lies strictly below 40 µL/min/mg
n

Determine whether this compound shows Human Liver Microsome Stability lower than 40 µL/min/mg (ties excluded): Cc1cc(S(=O)(=O)N2CC[C@H]2C(=O)NCC#Cc2ccccc2)c2[nH]ncc2c1
n

Given the entry CCN(CC(=O)Nc1ccc2c(c1)OCCN2C1CCOCC1)S(=O)(=O)c1cc(C)cc2c[nH]nc12 , would its reported Human Liver Microsome Stability be below 40 µL/min/mg?
n

Confirm or reject: Human Liver Microsome Stability of Cc1cc(S(=O)(=O)N(C)CC(=O)Nc2ccc(C3CCN(C4COC4)CC3)c(Cl)c2)c2[nH]ncc2c1 lies strictly below 40 µL/min/mg
n
